All values here come from patent US20040106626A1.

- Target desc: Human thrombin (Homo sapiens, UniProt P00734)
- Construct: converts prothrombin (II) to thrombin (IIa); purchased Calbiochem, La Jolla, Calif
- Assay info: Thrombin assay (chromogenic substrate)
- Type: biochemical
- Run conditions: reported only as less than or greater than 30 uM; read-out: Thrombin (II) IC50
// reported IC50 per item

Documented IC50 of `CC(C)Nc1ncc(-c2cc(N)cc(C(=O)NC(C)(C)c3ccccc3)c2)n(CC(=O)NCc2ccc(C(=N)N)cc2)c1=O` : < 30 µM

Documented IC50 of `CC(C)Nc1ncc(-c2cc(N)cc(NS(=O)(=O)c3ccc(OC(F)(F)F)cc3)c2)n(CC(=O)NCc2ccc(C(=N)N)cc2)c1=O` : > 30 µM

Documented IC50 of `CC(C)Nc1ncc(-c2cc(N)cc(C(=O)N[C@H](C(=O)O)c3ccccc3)c2)n(CC(=O)NCc2ccc(C(=N)N)cc2)c1=O` : > 30 µM

Documented IC50 of CC(C)Nc1ncc(-c2cc(N)cc(C(F)(F)F)c2)n(CC(=O)NCc2c(F)c(O)c(C(=N)N)c(F)c2F)c1=O [Example 126] : < 30 µM

Documented IC50 of `CC(C)CCNC(=O)c1cc(N)cc(-c2cnc(NC(C)C)c(=O)n2CC(=O)NCc2ccc(C(=N)N)cc2)c1.O=C(O)C(F)(F)F.O=C(O)C(F)(F)F` : > 30 µM

Others:
Documented IC50 of `CC(C)Nc1cnc(-c2cc(N)cc(C(=O)O)c2)n(CC(=O)NCc2ccc(C(=N)N)cc2)c1=O` : > 30 µM

Documented IC50 of `CC(C)Nc1ncc(-c2cc(N)cc(NC(=O)C3CCCC3)c2)n(CC(=O)NCc2ccc(C(=N)N)cc2)c1=O` : < 30 µM

Documented IC50 of `CC(C)Nc1ncc(-c2cc(N)cc(C(=O)NCCC(=O)O)c2)n(CC(=O)NCc2ccc(C(=N)N)cc2)c1=O.O=C(O)C(F)(F)F.O=C(O)C(F)(F)F` : > 30 µM

Documented IC50 of `N=C(N)c1c(O)c(F)c(CNC(=O)Cn2c(-c3cc(N)cc(C(F)(F)F)c3)cnc(NC3CC3)c2=O)c(F)c1F` : > 30 µM

Documented IC50 of `COc1cccc(CNC(=O)c2cc(N)cc(-c3cnc(NC(C)C)c(=O)n3CC(=O)NCc3ccc(C(=N)N)cc3)c2)c1.O=C(O)C(F)(F)F` : > 30 µM

Documented IC50 of `CCCC(=O)Nc1cc(N)cc(-c2cnc(NC(C)C)c(=O)n2CC(=O)NCc2ccc(C(=N)N)cc2)c1.O=C(O)C(F)(F)F.O=C(O)C(F)(F)F` : < 30 µM

Documented IC50 of `CC(C)Nc1ncc(-c2cc(N)cc(N)c2)n(CC(=O)NCc2ccc(C(=N)N)c(O)c2)c1=O` : > 30 µM

Documented IC50 of `CCNC(=O)c1cc(N)cc(-c2cnc(NC(C)C)c(=O)n2CC(=O)NCc2ccc(C(=N)N)cc2)c1` : > 30 µM
